Reference source: patent US12012411B2

- assay_info: in vitro
- reported_conditions: African green monkey, uninfected quiescent Vero-B cells
reported_metric: CC50 at 4 days

Answered examples (2):
| compound | CC50 at 4 days |
| --- | --- |
| COc1cc(CO)cc(NC(C(=O)c2nn(C)c3ccccc23)c2ccccc2)c1 (stereo not drawn) | > 125 µM |
| COc1cc(NC(C(=O)c2c[nH]c3ccccc23)c2ccccc2)ccn1 (stereo not drawn) | > 139 µM |

Alright, here's another compound for you.
Give the value of CC50 at 4 days reported for the following: COc1cccc(NC(C(=O)c2c[nH]c3ccccc23)c2cccc3ccnn23)c1 (stereo not drawn)
> 126 µM

---

Form field: CC50 at 4 days (one value per entry).
- assay_info: Cytotoxicity in A549 cells (MTS/PMS)
- Type: cell-based
- reported_conditions: human; A549 cells (Table 6)

Example cases with answers are listed next.
| molecule | experimental_result |
| --- | --- |
| COc1cc(NC(C(=O)c2cn(C)c3ccccc23)c2ccccc2)cc(OC)c1 (stereo not shown) [CPD-338] | > 124 µM |
| COc1cc(NC(C(=O)c2nn(C)c3ccccc23)c2ccc(F)cc2)cc(OC)c1 (stereo not shown) [CPD-340] | > 119 µM |
| COc1cc(CO)cc(NC(C(=O)c2c[nH]c3ccccc23)c2ccc(C)nc2)c1 (stereo not shown) [CPD-320] | > 124 µM |

// moving on: another record for CC50 at 4 days
// Input: COc1cc(NC(C(=O)c2cn(C)c3ccccc23)c2cccnc2)cc(OC)c1 (stereo not shown) [CPD-360] . Output its CC50 at 4 days only.
> 124 µM

---

- assay_info: in vitro
- reported_conditions: African green monkey, uninfected quiescent Vero-B cells
reported_metric: CC50 at 4 days (µM)
The reply should be a number in µM, with the unit left off.

| compound | measurement_units | CC50 at 4 days |
| --- | --- | --- |
| COc1cccc(NC(C(=O)c2c[nH]c3ccccc23)c2ccccn2)c1 (centres unmarked) | µM | 89 |
| COc1cccc(NC(C(=O)c2c[nH]c3ccccc23)c2cccnn2)c1 (centres unmarked) | µM | 88 |
| COc1cccc(NC(C(=O)c2c[nH]c3ccccc23)c2cncnc2)c1 (centres unmarked) | µM | 65 |
| COc1cc(CO)cc(NC(C(=O)c2c[nH]c3ccccc23)c2cc3ccccn3n2)c1 (centres unmarked) | µM | 68 |
| COc1cccc(NC(C(=O)c2c[nH]c3ccccc23)c2cn3cc(F)ccc3n2)c1 (centres unmarked) | µM | 73 |
| COc1cccc(NC(C(=O)c2c[nH]c3ccccc23)c2ccc(OC(C)C)nc2)c1 (centres unmarked) | µM | 15 |
| COc1cc(NC(C(=O)c2c[nH]c3ccccc23)c2ccc(C#N)cc2)cc(OC)c1 (centres unmarked) | µM | 11 |
| COc1cccc(NC(C(=O)c2c[nH]c3cc(C#N)ccc23)c2ccccc2)c1 (centres unmarked) | µM | 11 |

Consider the compound COc1cc(NC(C(=O)c2c[nH]c3ccccc23)c2ccc(OC)nc2)cc(OC)c1 (centres unmarked) and give its recorded CC50 at 4 days.
18

State, in one line, measured CC50 at 4 days of O=C(c1c[nH]c2ccccc12)C(Nc1cccc(CO)c1)c1ccccc1 (centres unmarked)
135

Give CC50 at 4 days for CCOc1ncc(NC(C(=O)c2c[nH]c3ccccc23)c2ccccc2)cc1OC (centres unmarked)
72

Look up and report measured CC50 at 4 days for this entry: COc1cccc(NC(C(=O)c2c[nH]c3ccccc23)c2cncc(C)c2)c1 (centres unmarked)
74
